biological target: the molecule itself; assay: ITC; dilution ITC, 1 mM WT-ACD, dimer to monomers; 25°C, pH 7.5, 50 mM sodium phosphate, 100 mM NaCl
measured-property: Kd (µM)
Write the number in µM without appending the unit.

Prompt: Report Kd for HSPB5-ACD (alpha-crystallin domain of HSPB5, residues 64-152) (domain or fragment, human, UniProt P02511 64-152, looked up, HSPB5 (alphaB-crystallin), human, alpha-crystallin domain, residues 64-152; 15N- or 13C,15N-labelled for the NMR experiments; also called WT-ACD; WT-HSPB5-ACD; source: expressed and purified as described previously (Jehle et al., 2009)) GLSEMRLEKDRFSVNLDVKHFSPEELKVKVLGDVIEVHGKHEERQDEHGFISREFHRKYRIPADVDPLTITSSLSSDGVLTVNGPRKQV
Response: 2
